Tested on: HCT-116
Experiment: Antiproliferative activity against human HCT-116 cells assessed as reduction in cell growth incubated for 24 hrs by MTT assay
Assay type: functional, cell-based
Details: HCT-116, 24 h
test-readout: pIC50
The quantity pIC50 is defined as the negative base-10 logarithm of the molar concentration.

Give the measured pIC50 of "C/C(=N\NC(=O)c1ccccc1O)c1ccc(NC(=O)CSc2nc3ccccc3c(=O)n2-c2ccccc2)cc1" .
5.43

Give the measured pIC50 of "CCn1c(SCC(=O)Nc2ccc(/C(C)=N/O)cc2)nc2ccccc2c1=O" .
5.34

====

Molecular target: Hepatocyte growth factor receptor (Homo sapiens, UniProt P08581)
Sequence (P08581 whole entry): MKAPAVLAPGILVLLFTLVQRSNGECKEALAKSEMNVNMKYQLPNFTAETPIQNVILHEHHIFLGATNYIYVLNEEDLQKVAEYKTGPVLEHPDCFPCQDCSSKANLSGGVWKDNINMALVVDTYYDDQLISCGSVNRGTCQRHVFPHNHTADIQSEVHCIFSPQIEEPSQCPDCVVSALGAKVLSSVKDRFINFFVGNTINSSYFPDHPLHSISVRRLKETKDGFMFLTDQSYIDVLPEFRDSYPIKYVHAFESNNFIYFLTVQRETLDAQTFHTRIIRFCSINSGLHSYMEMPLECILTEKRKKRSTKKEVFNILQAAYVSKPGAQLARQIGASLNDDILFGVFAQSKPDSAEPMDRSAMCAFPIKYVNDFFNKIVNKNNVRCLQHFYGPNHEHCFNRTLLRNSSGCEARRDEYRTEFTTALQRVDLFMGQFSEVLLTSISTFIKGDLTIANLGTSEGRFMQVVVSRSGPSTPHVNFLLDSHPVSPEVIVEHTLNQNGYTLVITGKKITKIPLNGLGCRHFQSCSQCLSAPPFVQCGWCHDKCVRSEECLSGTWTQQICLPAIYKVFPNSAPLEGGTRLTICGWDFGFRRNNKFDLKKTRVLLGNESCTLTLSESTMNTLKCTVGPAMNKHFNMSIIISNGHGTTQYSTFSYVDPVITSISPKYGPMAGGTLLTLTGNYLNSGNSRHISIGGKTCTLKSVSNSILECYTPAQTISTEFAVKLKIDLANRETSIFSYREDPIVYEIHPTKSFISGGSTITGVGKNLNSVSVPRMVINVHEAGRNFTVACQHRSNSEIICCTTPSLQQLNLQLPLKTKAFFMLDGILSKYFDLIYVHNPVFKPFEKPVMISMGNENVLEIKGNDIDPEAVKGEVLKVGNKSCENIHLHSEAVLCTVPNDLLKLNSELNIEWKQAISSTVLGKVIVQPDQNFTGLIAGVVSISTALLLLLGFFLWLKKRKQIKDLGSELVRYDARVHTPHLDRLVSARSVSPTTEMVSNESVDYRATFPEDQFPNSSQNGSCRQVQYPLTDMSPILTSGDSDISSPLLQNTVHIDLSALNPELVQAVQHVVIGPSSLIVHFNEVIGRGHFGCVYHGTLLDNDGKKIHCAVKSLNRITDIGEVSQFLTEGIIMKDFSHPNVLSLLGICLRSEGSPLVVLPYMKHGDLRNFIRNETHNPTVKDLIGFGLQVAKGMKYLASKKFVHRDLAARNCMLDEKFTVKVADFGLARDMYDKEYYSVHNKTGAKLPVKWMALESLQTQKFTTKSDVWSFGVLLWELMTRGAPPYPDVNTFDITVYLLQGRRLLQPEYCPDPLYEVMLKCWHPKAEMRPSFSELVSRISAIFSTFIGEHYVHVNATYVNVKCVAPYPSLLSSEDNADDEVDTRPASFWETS
test-readout: pIC50
The quantity pIC50 is defined as the negative base-10 logarithm of the molar concentration.

Give the measured pIC50 of "COCCOc1cc2ncnc(Nc3ccc(NC(=O)CC(=O)Nc4ccc(F)cc4)cc3F)c2c2c1OCCO2" .
8.24

====

Tested on: HL-60
Test: Cytotoxicity against human HL-60 cells assessed as reduction in cell growth
Type: functional, cell-based
test-readout: IC50
Output should be the measured figure followed by the unit it is expressed in.

Give the measured IC50 of "C/C(=N\NC(=S)Nc1ccccc1)c1nnn(-c2ccc(F)cc2)c1C" .
1090 nM

====

Test: Cmax in human at 140 mg
Format: ADME
test-readout: Cmax

Give the measured Cmax of COc1cc2nccc(Oc3ccc(NC(=O)C4(C(=O)Nc5ccc(F)cc5)CC4)cc3)c2cc1OC [CABOZANTINIB] .
554 ng/mL

====

Record form. Attribute: IC50. Fill in for each entry.

Value wanted: IC50 (Histone deacetylase 4 (Homo sapiens, UniProt P56524)) of entry "Cc1c2ccc(N(C)c3ccnc(Nc4ccc(C(=O)Nc5ccccc5N)cc4)n3)cc2nn1C"
> 10 µM

Value wanted: IC50 (Histone deacetylase 4 (Homo sapiens, UniProt P56524)) of entry "Cc1c2ccc(Nc3ccnc(Nc4ccc(NC(=O)CCCCCCC(=O)NO)cc4)n3)cc2nn1C"
> 10 µM

====

Record form. Attribute: IC50 at 24 h. Fill in for each entry.
Assay: Cytotoxicity against African green monkey Vero cells assessed as inhibition of cell growth incubated for 24 hrs by MTT assay
Format: toxicity, cell-based, Chlorocebus sabaeus
Numbers only; they are read as µM.

Give the measured IC50 at 24 h of "Cc1cc(NS(=O)(=O)c2ccc(NN=C3C(=O)NNC3=O)cc2)no1" .
36.3

Give the measured IC50 at 24 h of "Cc1cc(C)nc(NS(=O)(=O)c2ccc(NN=C3C(=O)NNC3=O)cc2)n1" .
39.4

Give the measured IC50 at 24 h of "CCOC(=O)/C(=N\Nc1ccc(S(=O)(=O)Nc2nc(C)cc(C)n2)cc1)C(=O)NNc1ccccc1" .
59.8

====

Biological target: Vascular endothelial growth factor receptor 2 (Homo sapiens)
Assay: Inhibition of VEGFR2 (unknown origin) by kinase profiling assay
test-readout: IC50 (µM)
Numbers only; they are read as µM.

Give the measured IC50 of "COc1ccc(-c2cc3c(ccn4nc(-c5cccnc5)nc34)o2)cc1" .
38.7

Give the measured IC50 of "COc1ccc(-c2nc3c4cc(-c5ccc(OC)cc5)oc4ccn3n2)cc1" .
58

====

Molecular target: Vascular endothelial growth factor receptor 2 (Homo sapiens, UniProt P35968)
Sequence (P35968 whole entry): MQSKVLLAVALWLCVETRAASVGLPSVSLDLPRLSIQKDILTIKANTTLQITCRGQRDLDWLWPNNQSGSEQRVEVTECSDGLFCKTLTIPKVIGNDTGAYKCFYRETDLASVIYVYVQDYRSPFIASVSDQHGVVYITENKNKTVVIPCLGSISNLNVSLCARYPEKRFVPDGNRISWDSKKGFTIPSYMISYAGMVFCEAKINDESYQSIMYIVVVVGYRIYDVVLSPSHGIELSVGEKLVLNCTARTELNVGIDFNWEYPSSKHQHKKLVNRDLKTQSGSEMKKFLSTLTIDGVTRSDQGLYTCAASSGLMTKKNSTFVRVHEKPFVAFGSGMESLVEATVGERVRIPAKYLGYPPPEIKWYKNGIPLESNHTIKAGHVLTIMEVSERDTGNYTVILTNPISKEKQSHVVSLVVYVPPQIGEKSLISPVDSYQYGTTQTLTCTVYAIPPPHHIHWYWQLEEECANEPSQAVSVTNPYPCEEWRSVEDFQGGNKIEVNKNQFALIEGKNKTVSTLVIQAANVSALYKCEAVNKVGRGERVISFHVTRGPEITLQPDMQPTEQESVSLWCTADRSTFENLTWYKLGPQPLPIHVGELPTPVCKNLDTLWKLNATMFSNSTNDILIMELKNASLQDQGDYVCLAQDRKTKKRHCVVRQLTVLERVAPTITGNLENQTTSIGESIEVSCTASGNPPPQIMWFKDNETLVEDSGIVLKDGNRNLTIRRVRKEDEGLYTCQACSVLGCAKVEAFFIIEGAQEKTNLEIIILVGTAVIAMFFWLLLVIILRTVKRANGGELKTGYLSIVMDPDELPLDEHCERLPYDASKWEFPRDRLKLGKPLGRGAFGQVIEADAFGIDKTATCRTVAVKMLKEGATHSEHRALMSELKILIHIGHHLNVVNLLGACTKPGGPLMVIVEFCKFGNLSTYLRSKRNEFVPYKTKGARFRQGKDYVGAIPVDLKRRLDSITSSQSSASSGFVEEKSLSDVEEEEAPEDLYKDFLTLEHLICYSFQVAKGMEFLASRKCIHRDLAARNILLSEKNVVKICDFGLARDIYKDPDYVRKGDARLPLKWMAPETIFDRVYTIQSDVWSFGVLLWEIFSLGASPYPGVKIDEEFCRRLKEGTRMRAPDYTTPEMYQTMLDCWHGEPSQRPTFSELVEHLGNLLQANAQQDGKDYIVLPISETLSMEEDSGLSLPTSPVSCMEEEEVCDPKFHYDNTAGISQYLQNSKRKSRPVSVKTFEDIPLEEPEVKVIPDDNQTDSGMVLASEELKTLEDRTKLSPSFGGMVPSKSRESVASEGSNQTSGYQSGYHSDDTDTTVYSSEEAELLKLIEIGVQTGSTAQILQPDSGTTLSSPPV
Assay: Inhibition of VEGFR2 (unknown origin)
IC50 class ranges: Low (below 50 nM), Mid (50 nM to below 200 nM), High (200 nM or more)

Which band does "O=C(CSc1nc2sc3c(c2c(=O)n1-c1ccc(Cl)cc1)CCCC3)NNC(=O)Nc1cccc(C(F)(F)F)c1" fall in?
Mid

Which band does "Cc1c2ccc(Nc3ccnc(Nc4ccc(OCCCCCCC(=O)NO)cc4)n3)cc2nn1C" fall in?
Low

Which band does "COCCOc1cc2ncnc(Nc3ccc(NC(=O)CC(=O)Nc4ccc(F)cc4)cc3F)c2c2c1OCCO2" fall in?
Low

Which band does "Cc1c2ccc(Nc3ccnc(Nc4ccc(NC(=O)CCCCCCC(=O)NO)cc4)n3)cc2nn1C" fall in?
Low

Which band does "COc1ccc(-c2cc(-c3ccc(OC)c(OC)c3)c3c(N)c(C(=O)c4ccc(C)cc4)sc3n2)cc1OC" fall in?
High

Which band does "O=C(NC1=NN2C(=O)/C(=C/c3ccco3)N=C2S1)c1cccs1" fall in?
High

Which band does "COc1ccc(-c2cc(-c3ccc(C)cc3)nc(NN)n2)cc1" fall in?
Mid

Which band does "C/C(=N\NC(=S)Nc1ccccc1)c1nnn(-c2ccc(F)cc2)c1C" fall in?
Mid

Which band does "N=c1cc(N)nc2sc(NC(=O)c3cccs3)nn12" fall in?
High

Which band does "Cc1ccc2oc(CCCC(=O)Nc3ccc(S(=O)(=O)NC(=O)NC4CCCCC4)cc3)nc2c1" fall in?
Mid

Which band does O=C(Nc1ccc(Oc2ccnc(C(=O)NCCCCNC(=O)C3CC4C=CC3C4)c2)cc1)Nc1ccc(Cl)c(C(F)(F)F)c1 (configuration not stated) fall in?
High

====

Tested on: EA.hy 926
Assay: Antiproliferative activity against human EA.hy 926 cells assessed as reduction in cell viability incubated for 48 hrs by MTT assay
Type: functional, cell-based
Conditions: EA.hy 926, 48 h
test-readout: pIC50
The quantity pIC50 is defined as the negative base-10 logarithm of the molar concentration.

Give the measured pIC50 of O=C(Nc1ccc(Oc2ccnc(C(=O)NCCCCNC(=O)C3CC4C=CC3C4)c2)cc1)Nc1ccc(Cl)c(C(F)(F)F)c1 (stereo unspecified) .
7.33

====

Target: Serine/threonine-protein kinase B-raf (Homo sapiens, UniProt P15056, V600E)
Sequence (P15056 2-766 V600E limits assumed): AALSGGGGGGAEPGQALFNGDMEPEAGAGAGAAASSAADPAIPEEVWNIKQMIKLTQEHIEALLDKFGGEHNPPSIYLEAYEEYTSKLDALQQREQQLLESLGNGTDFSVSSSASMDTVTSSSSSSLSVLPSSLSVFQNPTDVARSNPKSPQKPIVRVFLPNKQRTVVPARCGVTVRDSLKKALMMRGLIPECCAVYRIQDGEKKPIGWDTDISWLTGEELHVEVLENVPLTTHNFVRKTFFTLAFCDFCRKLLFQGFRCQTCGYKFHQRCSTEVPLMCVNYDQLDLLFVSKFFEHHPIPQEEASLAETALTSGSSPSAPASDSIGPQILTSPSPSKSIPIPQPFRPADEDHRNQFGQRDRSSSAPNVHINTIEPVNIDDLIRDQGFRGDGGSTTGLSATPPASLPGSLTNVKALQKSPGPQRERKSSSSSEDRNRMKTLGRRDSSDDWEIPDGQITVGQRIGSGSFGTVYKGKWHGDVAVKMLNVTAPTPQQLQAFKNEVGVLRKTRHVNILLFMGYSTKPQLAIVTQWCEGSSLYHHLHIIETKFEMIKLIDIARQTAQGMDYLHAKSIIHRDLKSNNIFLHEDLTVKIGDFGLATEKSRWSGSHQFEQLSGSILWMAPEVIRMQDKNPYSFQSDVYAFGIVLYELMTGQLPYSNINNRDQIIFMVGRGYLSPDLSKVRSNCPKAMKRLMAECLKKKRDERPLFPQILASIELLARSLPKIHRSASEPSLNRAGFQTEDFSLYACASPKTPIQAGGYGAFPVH
Test: Inhibition of BRAF V600E mutant (unknown origin)
test-readout: pIC50
The quantity pIC50 is defined as the negative base-10 logarithm of the molar concentration.

Give the measured pIC50 of "O=C(CSc1nc2ccccc2c(=O)n1-c1ccc(Cl)cc1)Nc1ccc(-c2nc3ccccc3[nH]2)cc1" .
8.70

Give the measured pIC50 of "O=C(CSc1nc2sc3c(c2c(=O)n1-c1ccc(Cl)cc1)CCCC3)NNC(=O)Nc1cccc(C(F)(F)F)c1" .
7.05

Give the measured pIC50 of "O=C(CSc1nc2sc3c(c2c(=O)n1-c1ccc(Cl)cc1)CCCC3)NNC(=O)Nc1ccc(Cl)c(C(F)(F)F)c1" .
7.20

====

Tested on: HepG2
Assay: Antiproliferative activity against human HepG2 cells assessed as reduction in cell growth by MTT assay
Format: functional, cell-based
test-readout: pIC50
The quantity pIC50 is defined as the negative base-10 logarithm of the molar concentration.

Give the measured pIC50 of "O=C(N/N=C/c1ccc(Cl)cc1)c1ccc(Nc2ncnc3sc4c(c23)CCCC4)cc1" .
5.39

====

Biological target: Vascular endothelial growth factor receptor 2 (Homo sapiens)
Assay: Inhibition of VEGFR2 (unknown origin) by Z'-Lyte kinase assay
test-readout: pIC50
The quantity pIC50 is defined as the negative base-10 logarithm of the molar concentration.

Value wanted: pIC50 (Vascular endothelial growth factor receptor 2 (Homo sapiens)) of entry "O=C1C(=O)N(CN2CCN(c3cc(=O)[nH]c4ccc(F)cc34)CC2)c2ccccc21"
7.20

====

Test system: Caco-2
Assay: Antiproliferative activity against human Caco-2 cells
Format: functional, cell-based
test-readout: pIC50
The quantity pIC50 is defined as the negative base-10 logarithm of the molar concentration.

Give the measured pIC50 of "COc1ccc(-c2cc(-c3ccc(C)cc3)nc(NN)n2)cc1" .
4.89

====

Molecular target: Vascular endothelial growth factor receptor 2 (Homo sapiens, UniProt P35968)
Test: Inhibition of human VEGFR2 by discoverX kinome scan assay
Record form. Attribute: pIC50. Fill in for each entry.
The quantity pIC50 is defined as the negative base-10 logarithm of the molar concentration.

Give the measured pIC50 of "O=C(N/N=C/c1ccc(Cl)cc1)c1ccc(Nc2ncnc3sc4c(c23)CCCC4)cc1" .
6.64

Give the measured pIC50 of "CCNC(=S)NS(=O)(=O)c1ccc(NC(=O)CSc2cc3ccccc3c(=O)n2CC)cc1" .
5.51

Give the measured pIC50 of "COc1ccc(-c2nc3c4cc(-c5ccc(OC)cc5)oc4ccn3n2)cc1" .
4.24

Give the measured pIC50 of "COc1ccc(-c2cc3c(ccn4nc(-c5cccnc5)nc34)o2)cc1" .
4.41

====

Assay: Antiproliferative activity against human WI-38 cells assessed as cell growth inhibition incubated for 24 hrs by MTT assay
Assay type: toxicity, cell-based
Settings: human, WI-38 cells
test-readout: IC50 at 24 h (µM)
Numbers only; they are read as µM.

Give the measured IC50 at 24 h of "CCOC(=O)c1c(NC(=S)Nc2cc(C)ccc2Cl)sc2c1N(C)CC2" .
35.3

====

Assay: Cytotoxicity against human HUVEC cells assessed as reduction in cell viability by CCK-8 assay
Assay type: toxicity, cell-based
test-readout: IC50 (nM)
Numbers only; they are read as nM.

Give the measured IC50 of "COCCOc1cc2ncnc(Nc3ccc(NC(=O)CC(=O)Nc4ccc(F)cc4)cc3F)c2c2c1OCCO2" .
0.8
